Values from patent US9707200B2

# test target: PPARγ (Homo sapiens)
# Construct: expressed in transfected cells; host or cells: CV-1 (African green monkey kidney)
# Sequence (P37231 238-503 limits assumed): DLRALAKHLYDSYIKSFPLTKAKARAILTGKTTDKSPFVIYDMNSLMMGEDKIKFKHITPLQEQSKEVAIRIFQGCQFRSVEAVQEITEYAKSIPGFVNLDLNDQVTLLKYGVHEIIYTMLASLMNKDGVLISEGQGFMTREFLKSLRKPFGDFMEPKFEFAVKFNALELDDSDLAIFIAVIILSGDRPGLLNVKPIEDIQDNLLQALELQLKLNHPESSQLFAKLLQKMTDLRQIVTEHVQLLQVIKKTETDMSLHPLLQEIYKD
# test method notes: PPARγ ligand activity, GAL4-PPARγ reporter luciferase assay in CV-1 cells
# Assay type: cell-based
# assay setup: 24 hr incubation, KetoA and HYA each at 30 μM, other fatty acids by a similar method
measured property: PPARγ agonist activity (relative luciferase activity)

INSERT INTO measurements (compound, result) VALUES
  ('CCCCC/C=C\CC(=O)CC/C=C\CCCCC(=O)O [γKetoA, 10-oxo-cis-6,cis-12-octadecadienoic acid]', 'PPARγ agonist activity'),
  ('CC/C=C\C/C=C\CC(=O)CCCCCCCCC(=O)O [αKetoA]', 'PPARγ agonist activity');
